tested-on: human PTGES (Homo sapiens (Human), UniProt O14684)
Sequence (O14684 whole entry): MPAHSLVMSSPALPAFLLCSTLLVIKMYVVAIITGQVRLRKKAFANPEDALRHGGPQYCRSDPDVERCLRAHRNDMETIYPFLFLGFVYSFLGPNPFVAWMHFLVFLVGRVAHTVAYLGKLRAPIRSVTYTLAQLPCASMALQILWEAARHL
experiment-summary: Human PTGES biochemical enzyme inhibition assay (conversion of PGH2 to PGE2, TR-FRET)
experimental-setup: Enzymatic conversion of PGH2 to PGE2; read-out: Human PTGES IC50
Exercise: state measured IC50 for each of the compounds provided.
Please respond with the number in nM and leave the unit unwritten.

-- ask Which IC50 is reported for this compound? Cc1cc(C(C(=O)Nc2cccc(CCC(=O)O)c2C)C2CCCC2)c(F)cc1-c1cncc(Cl)c1 (racemic)
-- reply 2300

-- ask Same question for Cc1c(NC(=O)C(c2ccc(-c3cncc(Cl)c3)c(F)c2)C2CCCC2)cccc1C(C)CC(=O)O (single isomer, unassigned; stereoisomer 4) [Example 129] please.
-- reply 5.6

-- ask Same question for Cc1cc(C(C(=O)Nc2cccc(CCC(=O)O)c2C)C2CCCC2)ccc1-c1cncc(C(F)(F)F)c1 (racemic) please.
-- reply 19.2

-- ask Same question for Cc1c(NC(=O)C(c2ccc(-c3cncc(Cl)c3)c(F)c2)C2CCC2)cccc1C(C)CC(=O)O (single isomer, unassigned; stereoisomer 2) [Example 151] please.
-- reply 46.5

-- ask Same question for Cc1c(CC(C)C(=O)O)cccc1NC(=O)C(c1ccc(-c2cncc(C(F)(F)F)c2)cc1)C1CCCC1 (single isomer, unassigned; stereoisomer 4) [Example 72] please.
-- reply 71

-- ask Same question for Cc1c(CCC(=O)O)cccc1NC(=O)C(c1ccc(-c2ccc(C(F)(F)F)nc2)cc1)C1CCCC1 (racemic) [Example 4] please.
-- reply 1320

-- ask Same question for Cc1c(NC(=O)C(c2ccc(-c3cncc(C(F)(F)F)c3)c(F)c2)C2CCCC2)cccc1C(C)CC(=O)O (single isomer, unassigned; stereoisomer 3) [Example 118] please.
-- reply 383

-- ask Same question for Cc1c(CCC(=O)O)cccc1NC(=O)C(c1ccc(-c2cncc(OC(F)F)c2)cc1)C1CCCC1 (racemic) please.
-- reply 380

-- ask Same question for Cc1c(CCC(=O)O)cccc1NC(=O)C(c1cc(F)c(-c2cncc(C(F)(F)F)c2)cc1F)C1CCCC1 (racemic) please.
-- reply 85.2

-- ask Same question for Cc1cncc(-c2ccc(C(C(=O)Nc3cccc(C(C)CC(=O)O)c3C)C3CCCC3)cc2)c1 (mixture of isomers) please.
-- reply 32.3

-- ask Same question for Cc1c(CCC(=O)O)cccc1NC(=O)C(c1ccc(-c2cncc(Cl)c2)cc1)C1CCCCC1 (racemic) please.
-- reply 196
